Values from ChEMBL document CHEMBL5108020

experimental.system: Transcriptional activator protein LasR (Pseudomonas aeruginosa (strain ATCC 15692 / PAO1 / 1C / PRS 101 / LMG12228), UniProt P25084)
Sequence (P25084 whole entry): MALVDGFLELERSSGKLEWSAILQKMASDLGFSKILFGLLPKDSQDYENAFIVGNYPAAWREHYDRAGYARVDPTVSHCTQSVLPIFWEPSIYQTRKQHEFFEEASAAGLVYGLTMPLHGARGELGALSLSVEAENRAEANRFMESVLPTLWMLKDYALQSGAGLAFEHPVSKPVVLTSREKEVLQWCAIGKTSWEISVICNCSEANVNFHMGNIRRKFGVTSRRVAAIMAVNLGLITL
assay.protocol: Inhibition of Pseudomonas aeruginosa PAO-JG21 LasR co-transfected with LVAgfp reporter assessed as inhibition of GFP production by fluorescence based analysis
pIC50: −log10 of the molar value.

[
  {
    "compound.structure": "Nc1nc2ccccc2[nH]1",
    "pIC50": 5.85
  }
]

###

assay.protocol: Inhibition of quorum sensing system in Pseudomonas aeruginosa assessed as inhibition of pyocyanin production at sub-MIC by absorbance based analysis
# cutoff 40% applies to inhibition; >= gives Y, < gives N

[
  {
    "compound.structure": "O=C(COc1ccc(-c2nc3ccccc3[nH]2)cc1)Nc1ccc([N+](=O)[O-])cc1",
    "category": "Y"
  },
  {
    "compound.structure": "c1ccc2[nH]c(-c3ccc(-n4ccnc4)cc3)nc2c1",
    "category": "N"
  },
  {
    "compound.structure": "CC[C@H]1OC(=O)[C@H](C)[C@@H](O[C@H]2C[C@@](C)(OC)[C@@H](O)[C@H](C)O2)[C@H](C)[C@@H](O[C@@H]2O[C@H](C)C[C@H](N(C)C)[C@H]2O)[C@](C)(O)C[C@@H](C)CN(C)[C@H](C)[C@@H](O)[C@]1(C)O",
    "category": "Y"
  },
  {
    "compound.structure": "O=C(COc1ccc(-c2nc3cc(Cl)ccc3[nH]2)cc1)Nc1ccc(Cl)cc1",
    "category": "N"
  },
  {
    "compound.structure": "COc1ccc(NC(=O)COc2ccc(-c3nc4cc(C)ccc4[nH]3)cc2)cc1",
    "category": "N"
  },
  {
    "compound.structure": "O=C(COc1ccc(-c2nc3ccccc3[nH]2)cc1)Nc1ccc(F)cc1",
    "category": "N"
  },
  {
    "compound.structure": "O=C(COc1ccc(-c2nc3cc(Cl)ccc3[nH]2)cc1)Nc1ccccc1[N+](=O)[O-]",
    "category": "N"
  },
  {
    "compound.structure": "O=C(COc1ccc(-c2nc3ccccc3[nH]2)cc1)Nc1ccc(Cl)cc1",
    "category": "Y"
  },
  {
    "compound.structure": "Cc1ccc2[nH]c(-c3ccc(OCC(=O)Nc4ccccc4[N+](=O)[O-])cc3)nc2c1",
    "category": "Y"
  },
  {
    "compound.structure": "O=C(COc1ccc(-c2nc3cc(Cl)ccc3[nH]2)cc1)Nc1ccccc1",
    "category": "N"
  },
  {
    "compound.structure": "Cc1ccc2[nH]c(-c3ccc(OCC(=O)Nc4ccc(Cl)cc4)cc3)nc2c1",
    "category": "N"
  },
  {
    "compound.structure": "O=C(COc1ccc(-c2nc3ccccc3[nH]2)cc1)Nc1ccccc1[N+](=O)[O-]",
    "category": "Y"
  },
  {
    "compound.structure": "Cc1ccccc1NC(=O)COc1ccc(-c2nc3ccccc3[nH]2)cc1",
    "category": "Y"
  },
  {
    "compound.structure": "Cc1ccc2[nH]c(-c3ccc(OCC(=O)Nc4ccccc4C)cc3)nc2c1",
    "category": "N"
  },
  {
    "compound.structure": "Cc1ccc2[nH]c(-c3ccc(OCC(=O)Nc4ccc([N+](=O)[O-])cc4)cc3)nc2c1",
    "category": "N"
  },
  {
    "compound.structure": "Cc1ccc2[nH]c(-c3ccc(OCC(=O)Nc4ccccc4)cc3)nc2c1",
    "category": "Y"
  },
  {
    "compound.structure": "Cc1ccc2[nH]c(-c3ccc(OCC(=O)Nc4ccc(F)cc4)cc3)nc2c1",
    "category": "Y"
  },
  {
    "compound.structure": "c1ccc2[nH]c(-c3ccc(N4CCCCC4)cc3)nc2c1",
    "category": "Y"
  },
  {
    "compound.structure": "CN1CCN(c2ccc(-c3nc4ccccc4[nH]3)cc2)CC1",
    "category": "Y"
  },
  {
    "compound.structure": "COc1ccc(NC(=O)COc2ccc(-c3nc4cc(Cl)ccc4[nH]3)cc2)cc1",
    "category": "N"
  },
  {
    "compound.structure": "O=C(COc1ccc(-c2nc3cc(Cl)ccc3[nH]2)cc1)Nc1ccc(F)cc1",
    "category": "N"
  },
  {
    "compound.structure": "Cc1ccc(NC(=O)COc2ccc(-c3nc4ccccc4[nH]3)cc2)cc1",
    "category": "N"
  },
  {
    "compound.structure": "O=C(COc1ccc(-c2nc3ccccc3[nH]2)cc1)Nc1ccccc1",
    "category": "N"
  },
  {
    "compound.structure": "O=C(COc1ccc(-c2nc3cc(Cl)ccc3[nH]2)cc1)Nc1ccc([N+](=O)[O-])cc1",
    "category": "N"
  },
  {
    "compound.structure": "Cc1ccc(NC(=O)COc2ccc(-c3nc4cc(C)ccc4[nH]3)cc2)cc1",
    "category": "Y"
  },
  {
    "compound.structure": "COc1ccc(NC(=O)COc2ccc(-c3nc4ccccc4[nH]3)cc2)cc1",
    "category": "Y"
  },
  {
    "compound.structure": "c1ccc2[nH]c(-c3ccc(N4CCOCC4)cc3)nc2c1",
    "category": "Y"
  },
  {
    "compound.structure": "Cc1ccc(NC(=O)COc2ccc(-c3nc4cc(Cl)ccc4[nH]3)cc2)cc1",
    "category": "N"
  },
  {
    "compound.structure": "Cc1ccccc1NC(=O)COc1ccc(-c2nc3cc(Cl)ccc3[nH]2)cc1",
    "category": "N"
  }
]
